Molecular target: Neurotensin receptor type 1 (Homo sapiens, UniProt P30989)
Sequence (P30989 whole entry): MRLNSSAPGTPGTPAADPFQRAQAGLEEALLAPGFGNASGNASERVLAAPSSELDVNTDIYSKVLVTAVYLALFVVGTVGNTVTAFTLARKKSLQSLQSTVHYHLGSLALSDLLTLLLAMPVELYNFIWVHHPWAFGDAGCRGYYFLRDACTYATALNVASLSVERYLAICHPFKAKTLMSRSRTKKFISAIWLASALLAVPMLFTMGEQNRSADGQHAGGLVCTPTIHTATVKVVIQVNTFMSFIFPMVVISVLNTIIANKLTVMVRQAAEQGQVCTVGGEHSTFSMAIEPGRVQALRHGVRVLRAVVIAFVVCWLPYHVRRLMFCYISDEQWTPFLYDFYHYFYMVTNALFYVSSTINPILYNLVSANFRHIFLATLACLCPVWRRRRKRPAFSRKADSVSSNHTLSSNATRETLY
Readout: Kd (nM)
Just the number please, in nM, no unit attached.

IN: GET /values?readout=Kd&item= COc1cccc(OC)c1-c1cc(C(=O)NC2(C(=O)O)C3CC4CC(C3)CC2C4)nn1-c1ccnc2cc(Cl)ccc12 (stereo unspecified) [REMINERTANT]
OUT: 8.9

###

Target: Neurotensin receptor type 1 (Homo sapiens, UniProt P30989, W134A)
Sequence (P30989 whole entry W134A): as the sequence (P30989 whole entry) above, with W134A counted along it
Assay: Displacement of [3H]SR48692 from human NTR1 extracellular loop 1 W134A mutant expressed in HEK293 cells
Readout: Kd (nM)
Just the number please, in nM, no unit attached.

IN: GET /values?readout=Kd&item= COc1cccc(OC)c1-c1cc(C(=O)NC2(C(=O)O)C3CC4CC(C3)CC2C4)nn1-c1ccnc2cc(Cl)ccc12 (stereo unspecified)
OUT: 23
